The measurements presented in this section are drawn from the supplement of paper PMC10567573.

B1: STK38L (parent)
chain: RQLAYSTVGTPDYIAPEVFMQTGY

- Variants of: B1
- assay: protein stability index of a GFP-peptide fusion (GPS, HEK-293T) (PSI 1-6); higher = more stable;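 note: lentivirally expressed fusions sorted by FACS into six bins by GFP to DsRed ratio, PSI derived from sequencing read proportions per bin multiplied by bin number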
- condition.details: c terminus: a fixed tail appended
Please go through the items and note down their protein stability index.
Keep the answer to the number alone.

INPUT: I have this variant here, `Y5T` , and I need its recorded protein stability index.
OUTPUT: 2.51

INPUT: I have this variant here, `T10G` , and I need its recorded protein stability index.
OUTPUT: 3.01

INPUT: I have this variant here, `T7S` , and I need its recorded protein stability index.
OUTPUT: 2.11

INPUT: I have this variant here, `M20W` , and I need its recorded protein stability index.
OUTPUT: 1.95

INPUT: I have this variant here, `P11W` , and I need its recorded protein stability index.
OUTPUT: 2.29

INPUT: I have this variant here, `Q2M` , and I need its recorded protein stability index.
OUTPUT: 2.03

INPUT: I have this variant here, `Y24H` , and I need its recorded protein stability index.
OUTPUT: 3.26

INPUT: I have this variant here, `Y24L` , and I need its recorded protein stability index.
OUTPUT: 2.44

INPUT: I have this variant here, `A4D` , and I need its recorded protein stability index.
OUTPUT: 2.38

INPUT: I have this variant here, `E17K` , and I need its recorded protein stability index.
OUTPUT: 2.08

INPUT: I have this variant here, `T22M` , and I need its recorded protein stability index.
OUTPUT: 2.48

INPUT: I have this variant here, `D12G` , and I need its recorded protein stability index.
OUTPUT: 2.11

INPUT: I have this variant here, `M20K` , and I need its recorded protein stability index.
OUTPUT: 2.76

INPUT: I have this variant here, `I14A` , and I need its recorded protein stability index.
OUTPUT: 3.13

INPUT: I have this variant here, `T7I` , and I need its recorded protein stability index.
OUTPUT: 2.04

INPUT: I have this variant here, `M20G` , and I need its recorded protein stability index.
OUTPUT: 2.53

INPUT: I have this variant here, `T22R` , and I need its recorded protein stability index.
OUTPUT: 2.85

INPUT: I have this variant here, `G23A` , and I need its recorded protein stability index.
OUTPUT: 2.34

INPUT: I have this variant here, `R1K` , and I need its recorded protein stability index.
OUTPUT: 2.71

INPUT: I have this variant here, `T22Y` , and I need its recorded protein stability index.
OUTPUT: 2.47

INPUT: I have this variant here, `T7R` , and I need its recorded protein stability index.
OUTPUT: 2.52

INPUT: I have this variant here, `Q2Y` , and I need its recorded protein stability index.
OUTPUT: 1.88

INPUT: I have this variant here, `L3G` , and I need its recorded protein stability index.
OUTPUT: 2.74

INPUT: I have this variant here, `Q21H` , and I need its recorded protein stability index.
OUTPUT: 2.79

INPUT: I have this variant here, `T7G` , and I need its recorded protein stability index.
OUTPUT: 2.62

INPUT: I have this variant here, `F19K` , and I need its recorded protein stability index.
OUTPUT: 3.12

INPUT: I have this variant here, `L3N` , and I need its recorded protein stability index.
OUTPUT: 2.56

INPUT: I have this variant here, `T22P` , and I need its recorded protein stability index.
OUTPUT: 3.18

INPUT: I have this variant here, `V18A` , and I need its recorded protein stability index.
OUTPUT: 2.46

INPUT: I have this variant here, `R1Q` , and I need its recorded protein stability index.
OUTPUT: 2.47

INPUT: I have this variant here, `Q2I` , and I need its recorded protein stability index.
OUTPUT: 1.61

INPUT: I have this variant here, `P11L` , and I need its recorded protein stability index.
OUTPUT: 2.2

INPUT: I have this variant here, `S6I` , and I need its recorded protein stability index.
OUTPUT: 1.78

INPUT: I have this variant here, `Y24N` , and I need its recorded protein stability index.
OUTPUT: 3.35

INPUT: I have this variant here, `Y5E` , and I need its recorded protein stability index.
OUTPUT: 3.13

INPUT: I have this variant here, `G23M` , and I need its recorded protein stability index.
OUTPUT: 1.63

INPUT: I have this variant here, `F19A` , and I need its recorded protein stability index.
OUTPUT: 3.68

INPUT: I have this variant here, `G9F` , and I need its recorded protein stability index.
OUTPUT: 2.27

INPUT: I have this variant here, `V8M` , and I need its recorded protein stability index.
OUTPUT: 2.87

INPUT: I have this variant here, `M20S` , and I need its recorded protein stability index.
OUTPUT: 3

INPUT: I have this variant here, `Q21Y` , and I need its recorded protein stability index.
OUTPUT: 1.51

INPUT: I have this variant here, `P11F` , and I need its recorded protein stability index.
OUTPUT: 1.85

INPUT: I have this variant here, `Q21W` , and I need its recorded protein stability index.
OUTPUT: 1.82

INPUT: I have this variant here, `G23F` , and I need its recorded protein stability index.
OUTPUT: 1.52

INPUT: I have this variant here, `E17M` , and I need its recorded protein stability index.
OUTPUT: 1.68

INPUT: I have this variant here, `T7H` , and I need its recorded protein stability index.
OUTPUT: 2.44
